Here's a batch of compounds along with measured pIC50 for full-length USP7 (Homo sapiens (Human)).
pIC50: −log10 of the molar value.

{"Compound": "Cc1cc(C#N)nc(-c2ccnc3cc(CN4C(=O)C5C(C4=O)C5(C)C)sc23)c1OC1CCCNC1 (stereo not drawn) [Example 1, 2,2,2-trifluoroacetate]", "Assayed system": "full-length USP7 (Homo sapiens (Human))", "pIC50": "> 6.30"}
{"Compound": "COCC(=O)Nc1c(-c2ccnc3cc(CN4C(=O)C5C(C4=O)C5(C)C)sc23)cc(C(F)(F)F)nc1C (stereo not drawn) [Example 61, 2,2,2-trifluoroacetate]", "Assayed system": "full-length USP7 (Homo sapiens (Human))", "pIC50": "< 5.00"}
{"Compound": "Cc1nc(C(F)(F)F)cc(-c2ccnc3cc(CN4C(=O)C5C(C4=O)C5(C)C)sc23)c1CN1CCNCC1 (stereo not drawn) [Example 102, 2,2,2-trifluoroacetate]", "Assayed system": "full-length USP7 (Homo sapiens (Human))", "pIC50": "5.00 to 6.00"}
